All figures here come from PubChem BioAssay (NCATS).

# test: P-glycoprotein substrates identified in KB-8-5-11 adenocarcinoma cell line, qHTS therapeutic library screen (AID 1346987); note: nearly all actives have a fitted effect of over 65% in size; note: potency is the fitted concentration of half-maximal effect
# experimental.parameters: KB-8-5-11 (P-gp overexpressing) viability, CellTiter-Glo, 72 h; series mostly up to 44.5 µM
Results filed as inconclusive are left out. Activity calls are given as the source filed them. Calls come from the whole dose curve; as a rule, active = well fitted inhibition curve with a large enough effect; inconclusive = small, poorly fitted or top-dose-only effect; inactive = flat fitted curve, though single readings scatter. *1 amine or outer side, *2 acyl side, *3 side chain or, on linkers, in order; H or OH if unused. Where a SMILES comes first, the peptide text is derived from it. [ ]: non-standard residue; d: D form. X7 = O=C([C@@H](CC(O)CCl)O[*:1])[*:2]; aIle = CC[C@@H](C)[C@H](N)C(=O)O; NMeV = CN[C@H](C(=O)O)C(C)C; NMeA = CN[C@@H](C)C(=O)O; βAla = NCCC(=O)O
parameter.measured: Potency

A selection of reference data follows.
CC[C@@H](C)[C@@H]1NC(=O)[C@@H]2CCCN2C(=O)[C@@H](CC(O)CCl)OC(=O)CCNC(=O)[C@H](C)N(C)C(=O)[C@H](C(C)C)N(C)C1=O (stereo partly specified) (cyclo([NMeA][βAla][X7]P[aIle][NMeV])) = inactive
C[C@@H]1[C@H]2Cc3ccc(O)cc3[C@]1(C)CCN2C = inactive
CCCCCn1cc(C(=O)c2cccc3ccccc23)c2ccccc21 = inactive
C[C@]12CC[C@H](O)C[C@@H]1CC[C@@H]1[C@@H]2CC[C@]2(C)C(=O)CC[C@@H]12 = inactive
CC[C@@H]1C[C@H]2CC[C@H](O2)[C@H](C)C(=O)O[C@@H](C)C[C@@H]2CC[C@@H](O2)[C@@H](C)C(=O)O[C@H](C)C[C@H]2CC[C@H](O2)[C@H](C)C(=O)O[C@@H](C)C[C@@H]2CC[C@@H](O2)[C@@H](C)C(=O)O1 = 1220 nM (active)

Query :: Any idea what its Potency is? The compound is CO[C@@H]1[C@H](O)[C@@H](O[C@@H]2C[C@H]3CC[C@@H]4C(CC[C@]5(C)[C@@H](C6=CC(=O)OC6)CC[C@]45O)[C@@]3(C)[C@H](O)C2)O[C@H](C)[C@@H]1O (stereo partly specified)
Result :: 252 nM (active)
